target: MAP kinase-activated protein kinase 5 (Homo sapiens); assay: Inhibition of MAPKAPK5 at 1 uM
quantityMeasured: inhibition

Some compounds with recorded inhibition:
In: What value of inhibition has been recorded for this entry: CN1CCN(c2ccc(-c3cnc4c(c3)N(Cc3c(F)ccc(F)c3Cl)CCN4)cn2)CC1
Out: < 50%

In: Which inhibition reading was recorded for the compound CN1CCN(c2ccc(-c3cnc4c(c3)N(Cc3cc(F)ccc3F)CCN4)cn2)CC1 ?
Out: < 50%

In: Could you tell me which inhibition is on file for CC(=O)N1CCN(c2cc(-c3cnc4c(c3)N(Cc3cc(Cl)ccc3C(F)(F)F)CCN4)ccn2)CC1 ?
Out: < 50%

In: Param item = CN1CCN(c2ccc(-c3cnc4c(c3)N(Cc3cc(Cl)ccc3C(F)(F)F)CCN4)cn2)CC1 ; retrieve measured inhibition.
Out: < 50%

In: Entry FC(F)(F)c1ccc(Cl)cc1CN1CCNc2ncc(-c3ccnc(N4CCNCC4)c3)cc21 has what inhibition?
Out: < 50%

--- query ---
In: Need inhibition of CN1CCN(c2ccc(-c3cnc4c(c3)N(Cc3cc(Cl)ccc3Cl)CCN4)cn2)CC1 , thanks.
Out: < 50%

====

molecular target: Tyrosine-protein kinase ABL2 (Homo sapiens); test: Inhibition of ABL2 at 1 uM
quantityMeasured: inhibition

Take a look at these entries with their results.
In: Endpoint output: inhibition of FC(F)(F)c1ccc(Cl)cc1CN1CCNc2ncc(-c3ccnc(N4CCNCC4)c3)cc21 . Value?
Out: < 50%

In: # input compound: CN1CCN(c2ccc(-c3cnc4c(c3)N(Cc3cc(Cl)ccc3C(F)(F)F)CCN4)cn2)CC1 ; wanted: its inhibition
Out: < 50%

In: Name the reported inhibition value associated with the compound CN1CCN(c2ccc(-c3cnc4c(c3)N(Cc3c(F)ccc(F)c3Cl)CCN4)cn2)CC1
Out: 83%

In: What inhibition value was documented for this compound, CN1CCN(c2ccc(-c3cnc4c(c3)N(Cc3cc(Cl)ccc3Cl)CCN4)cn2)CC1 ?
Out: < 50%

Let's switch to this compound now.
In: Reported inhibition, compound COC1CCN(C(=O)c2ccc(-c3cnc4c(c3)N(Cc3cc(Cl)ccc3C(F)(F)F)CCN4)cc2)CC1 : ____
Out: < 50%

====

target: Serine/threonine-protein kinase MARK2 (Homo sapiens); test: Inhibition of MARK2 at 1 uM
quantityMeasured: inhibition

In: Fill in the blank: the reported inhibition of FC(F)(F)c1ccc(Cl)cc1CN1CCNc2ncc(-c3ccnc(N4CCNCC4)c3)cc21 is ____.
Out: < 50%

In: Any idea what inhibition was measured for O=C(c1ccc(-c2cnc3c(c2)N(Cc2cc(Cl)ccc2C(F)(F)F)CCN3)cc1)N1CCC(N2CCCC2)CC1 ?
Out: 72.3%

In: Entry O=C(c1ccc(-c2cnc3c(c2)N(Cc2cc(Cl)ccc2C(F)(F)F)CCN3)cc1)N1CCCCC1 has what inhibition?
Out: < 50%

Consider now this further molecule.
In: # query: inhibition of entry COC1CCN(C(=O)c2ccc(-c3cnc4c(c3)N(Cc3cc(Cl)ccc3C(F)(F)F)CCN4)cc2)CC1
Out: < 50%

====

test system: Proto-oncogene tyrosine-protein kinase receptor Ret (Homo sapiens), P07949 [M918T]; assay: Inhibition of RET M918T mutant at 1 uM
Sequence (P07949 whole entry M918T): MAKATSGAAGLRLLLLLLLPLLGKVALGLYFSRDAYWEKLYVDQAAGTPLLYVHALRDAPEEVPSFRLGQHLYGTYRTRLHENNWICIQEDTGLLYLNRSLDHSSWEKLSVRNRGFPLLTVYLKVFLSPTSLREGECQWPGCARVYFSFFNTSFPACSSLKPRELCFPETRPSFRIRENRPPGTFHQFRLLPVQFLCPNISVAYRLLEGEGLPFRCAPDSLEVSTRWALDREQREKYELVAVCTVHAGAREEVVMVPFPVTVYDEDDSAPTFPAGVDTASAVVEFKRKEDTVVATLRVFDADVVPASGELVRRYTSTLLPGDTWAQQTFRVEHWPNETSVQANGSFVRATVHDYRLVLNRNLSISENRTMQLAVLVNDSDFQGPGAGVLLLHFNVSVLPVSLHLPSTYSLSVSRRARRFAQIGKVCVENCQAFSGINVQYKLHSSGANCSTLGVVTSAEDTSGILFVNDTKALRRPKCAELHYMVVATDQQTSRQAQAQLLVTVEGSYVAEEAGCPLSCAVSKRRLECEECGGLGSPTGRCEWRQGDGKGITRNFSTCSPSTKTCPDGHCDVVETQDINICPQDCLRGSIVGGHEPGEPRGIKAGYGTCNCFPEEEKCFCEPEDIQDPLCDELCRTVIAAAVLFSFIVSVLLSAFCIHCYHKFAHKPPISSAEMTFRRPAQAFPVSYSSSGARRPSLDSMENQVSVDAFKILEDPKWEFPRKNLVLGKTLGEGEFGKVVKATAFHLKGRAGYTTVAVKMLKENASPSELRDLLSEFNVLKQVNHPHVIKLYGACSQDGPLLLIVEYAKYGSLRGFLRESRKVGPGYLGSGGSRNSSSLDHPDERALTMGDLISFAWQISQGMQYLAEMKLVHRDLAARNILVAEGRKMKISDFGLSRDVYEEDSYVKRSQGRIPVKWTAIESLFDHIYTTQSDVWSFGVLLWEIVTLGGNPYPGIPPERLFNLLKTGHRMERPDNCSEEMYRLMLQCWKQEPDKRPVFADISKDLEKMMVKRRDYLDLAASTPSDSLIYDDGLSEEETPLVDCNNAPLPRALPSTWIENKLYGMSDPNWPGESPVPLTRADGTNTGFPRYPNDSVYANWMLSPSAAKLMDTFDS
quantityMeasured: inhibition

Before answering, review these 5 worked examples.
In: API: value(readout=inhibition, system=Proto-oncogene tyrosine-protein kinase receptor Ret (Homo sapiens), P07949 [M918T]) for record CN1CCN(c2ccc(-c3cnc4c(c3)N(Cc3cc(Cl)ccc3C(F)(F)F)CCN4)cn2)CC1
Out: < 50%

In: Form field: inhibition recorded for CC(=O)N1CCN(c2cc(-c3cnc4c(c3)N(Cc3cc(Cl)ccc3C(F)(F)F)CCN4)ccn2)CC1 with Proto-oncogene tyrosine-protein kinase receptor Ret (Homo sapiens), P07949 [M918T] (enter value)
Out: < 50%

In: Lab request: please report inhibition under test system Proto-oncogene tyrosine-protein kinase receptor Ret (Homo sapiens), P07949 [M918T] for CN1CCN(c2ccc(-c3cnc4c(c3)N(Cc3cc(F)ccc3F)CCN4)cn2)CC1
Out: < 50%

In: Lookup: inhibition / Proto-oncogene tyrosine-protein kinase receptor Ret (Homo sapiens), P07949 [M918T] / CN1CCN(c2ccc(-c3cnc4c(c3)N(Cc3cc(Cl)ccc3Cl)CCN4)cn2)CC1
Out: < 50%

In: Give Proto-oncogene tyrosine-protein kinase receptor Ret (Homo sapiens), P07949 [M918T] inhibition for FC(F)(F)c1ccc(Cl)cc1CN1CCNc2ncc(-c3ccnc(N4CCNCC4)c3)cc21
Out: 67%

Attention now shifts to the item below.
In: Give the reported inhibition for CN1CCN(c2ccc(-c3cnc4c(c3)N(Cc3c(F)ccc(F)c3Cl)CCN4)cn2)CC1 (system: Proto-oncogene tyrosine-protein kinase receptor Ret (Homo sapiens), P07949 [M918T]).
Out: < 50%
